Origin of measurements: paper PMC5641330

Assay: Clinical plasma PK in healthy volunteers after oral dosing (observed)
Assay type: in vivo
Details: male, human, po, 60 mg, oral single dosing 60 mg, read-out: Tmax Observed
endpoint label: Tmax (h)
Reply with just the number (in h).

Item under review: CCCCC1=CCC[C@@]2(C)CC[C@@H]3C[C@]12OC3(C)C [buagafuran] . Reported Tmax? 1

---

Assay: Plasma PK in the rat after oral dosing (observed)
Format: in vivo, male Wistar rats
Details: male, Wistar, oral 8 mg/kg, read-out: MRT(0-∞) Observed
endpoint label: MRT inf (h)
Hi! Could you send only the number? It should be in h, unit omitted.

Returns the measured MRT inf for the input molecule. Input: CCCCC1=CCC[C@@]2(C)CC[C@@H]3C[C@]12OC3(C)C [buagafuran] 1.21

---

Test: PBPK simulation in rat (GastroPlus)
Details: brain, oral, optimized by parameter sensitivity analysis, also used for human simulation
endpoint label: Kp
// print number alone

Name the recorded Kp for CCCCC1=CCC[C@@]2(C)CC[C@@H]3C[C@]12OC3(C)C [buagafuran] . 6.7

---

Assay: Plasma PK in the rat after oral dosing (observed)
Format: in vivo, male Wistar rats
Details: male, Wistar, single oral dosing 4 and 8 mg/kg, read-out: time of peak plasma concentration (converted)
endpoint label: Tmax
Report as: number unit

// Tmax lookup, key: CCCCC1=CCC[C@@]2(C)CC[C@@H]3C[C@]12OC3(C)C [buagafuran] 15 min

---

Experiment: Clinical plasma PK in healthy volunteers after oral dosing (observed)
Type: in vivo
Details: male, human, po, 120 mg, oral single dosing 120 mg, read-out: Tmax Observed
endpoint label: Tmax (h)
Use h as the unit, but write only the number.

GET /values?readout=Tmax&item= `CCCCC1=CCC[C@@]2(C)CC[C@@H]3C[C@]12OC3(C)C` 1

---

Test: Plasma PK in the rat after oral dosing (observed)
Format: in vivo, male Wistar rats
Details: male, Wistar, oral 4 mg/kg
endpoint label: Cmax (ng/mL)
Express it in ng/mL; write the number only.

For `CCCCC1=CCC[C@@]2(C)CC[C@@H]3C[C@]12OC3(C)C` , what is its reported Cmax? 5.31

---

Experiment: Clinical plasma PK in healthy volunteers after oral dosing (observed)
Assay type: in vivo
Settings: male, human, oral, 60 mg, multiple dosing (60 mg once daily, 7 days)/last dosing, read-out: AUC0-∞ Observed
endpoint label: AUC(0-inf) (ng·h/mL)
Hi! Could you send only the number? It should be in ng·h/mL, unit omitted.

Fill blank: measured AUC(0-inf) of the compound CCCCC1=CCC[C@@]2(C)CC[C@@H]3C[C@]12OC3(C)C [buagafuran] is ____. 231

---

Assay: Clinical plasma PK in healthy volunteers after oral dosing (observed)
Assay type: in vivo
Conditions: male, human, oral, 60 mg, multiple dosing (60 mg once daily, 7 days)/first dosing, read-out: MRT(0-∞) Observed
endpoint label: MRT inf
The reply must contain the numeric value and, after it, the unit.

Please look up its MRT inf: `CCCCC1=CCC[C@@]2(C)CC[C@@H]3C[C@]12OC3(C)C` 9.94 h

---

Experiment: Clinical plasma PK in healthy volunteers after oral dosing (observed)
Type: in vivo
Conditions: male, human, po, 60 mg, oral single dosing 60 mg, read-out: AUC0-∞ Observed
endpoint label: AUC(0-inf)

Given the entry CCCCC1=CCC[C@@]2(C)CC[C@@H]3C[C@]12OC3(C)C [buagafuran] , report its measured AUC(0-inf). 95.4 ng·h/mL
